Target: Protein cereblon/Eukaryotic peptide chain release factor GTP-binding subunit ERF3A (Homo sapiens) (UniProt Q96SW2+P15170)
Sequence (P15170 whole entry, looked up): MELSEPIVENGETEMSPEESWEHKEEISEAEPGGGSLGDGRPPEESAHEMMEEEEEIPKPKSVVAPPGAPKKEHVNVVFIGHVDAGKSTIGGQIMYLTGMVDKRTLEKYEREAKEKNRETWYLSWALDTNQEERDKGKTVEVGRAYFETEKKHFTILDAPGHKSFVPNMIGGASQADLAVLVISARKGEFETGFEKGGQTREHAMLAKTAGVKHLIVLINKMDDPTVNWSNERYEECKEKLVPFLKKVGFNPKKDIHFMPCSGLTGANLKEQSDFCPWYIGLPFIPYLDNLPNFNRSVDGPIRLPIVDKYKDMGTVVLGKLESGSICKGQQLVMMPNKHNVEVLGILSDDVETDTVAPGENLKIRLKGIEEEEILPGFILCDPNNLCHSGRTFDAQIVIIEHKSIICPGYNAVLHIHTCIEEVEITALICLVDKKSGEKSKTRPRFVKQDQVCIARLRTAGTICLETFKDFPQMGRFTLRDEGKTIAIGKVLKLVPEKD
Sequence (Q96SW2 whole entry, looked up): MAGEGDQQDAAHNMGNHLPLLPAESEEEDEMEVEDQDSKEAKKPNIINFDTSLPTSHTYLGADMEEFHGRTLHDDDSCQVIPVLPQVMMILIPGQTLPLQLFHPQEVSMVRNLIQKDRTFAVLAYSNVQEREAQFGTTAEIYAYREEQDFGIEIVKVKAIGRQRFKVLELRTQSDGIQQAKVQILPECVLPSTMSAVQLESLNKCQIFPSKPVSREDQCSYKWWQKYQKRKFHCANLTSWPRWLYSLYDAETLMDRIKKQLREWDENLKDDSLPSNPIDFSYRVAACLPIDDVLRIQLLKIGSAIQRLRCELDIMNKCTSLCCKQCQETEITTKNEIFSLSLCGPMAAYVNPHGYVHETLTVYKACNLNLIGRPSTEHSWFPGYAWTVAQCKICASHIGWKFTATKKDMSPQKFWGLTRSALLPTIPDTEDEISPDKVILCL
Assay: Protac activity at CRBN/GSPT1 (unknown origin) transfected in HEK293T cells at 100 nM incubated for 24 hrs by flow cytometry analysis relative to control
Format: cell-based
test readout: Activity (%)
Write the number in % without appending the unit.

INPUT: Given O=C1CCC(N2Cc3cc(NC(=O)c4ccc5c(c4)OCO5)ccc3C2=O)C(=O)N1 (centres undefined) , state its recorded Activity.
OUTPUT: 5

INPUT: Field request: Activity | item: O=C1CCC(N2Cc3cc(NC(=O)C4=Cc5ccc(C(F)(F)F)cc5OC4)ccc3C2=O)C(=O)N1 (centres undefined)
OUTPUT: 3

INPUT: Request the reported Activity associated with O=C1CCC(N2Cc3cc(NC(=O)Cc4cccc5ccccc45)ccc3C2=O)C(=O)N1 (centres undefined)
OUTPUT: 25

INPUT: State the recorded Activity for this entry: COc1ccc2c(c1)OCC(C(=O)Nc1ccc3c(c1)CN(C1CCC(=O)NC1=O)C3=O)=C2 (centres undefined)
OUTPUT: 9

INPUT: Look up Activity: O=C(/C=C/c1ccccc1)Nc1ccc2c(c1)CN(C1CCC(=O)NC1=O)C2=O (centres undefined)
OUTPUT: 8

INPUT: Given the entry O=C1CCC(N2Cc3cc(NC(=O)c4ccc5c(c4)CCCC5)ccc3C2=O)C(=O)N1 (centres undefined) , report its measured Activity.
OUTPUT: 1

INPUT: Name the reported Activity value associated with the compound COc1cccc2c1C=C(C(=O)Nc1ccc3c(c1)CN(C1CCC(=O)NC1=O)C3=O)CO2 (centres undefined)
OUTPUT: 24

INPUT: Data request, read-out Activity, for O=C1CCC(N2Cc3cc(NC(=O)C4=COc5ccccc5O4)ccc3C2=O)C(=O)N1 (centres undefined)
OUTPUT: 0

INPUT: May I ask what Activity has been recorded for O=C1CCC(N2Cc3cc(NC(=O)c4ccc(Oc5ccccc5)cc4)ccc3C2=O)C(=O)N1 (centres undefined) ?
OUTPUT: 10

INPUT: Can you share its Activity? I mean this compound: Cc1ccc2c(c1)OCC(C(=O)Nc1ccc3c(c1)CN(C1CCC(=O)NC1=O)C3=O)=C2 (centres undefined)
OUTPUT: 14

INPUT: Need Activity of COc1cccc2c1OCC(C(=O)Nc1ccc3c(c1)CN(C1CCC(=O)NC1=O)C3=O)=C2 (centres undefined) , thanks.
OUTPUT: 4

INPUT: What value of Activity has been reported for the following compound? O=C1CCC(N2Cc3cc(NC(=O)c4cccc(C(=O)c5ccccc5)c4)ccc3C2=O)C(=O)N1 (centres undefined)
OUTPUT: 9

INPUT: Activity lookup needed for COc1ccc2cc(C(=O)Nc3ccc4c(c3)CN(C3CCC(=O)NC3=O)C4=O)ccc2c1 (centres undefined) , thanks.
OUTPUT: 8

INPUT: Which Activity is listed for O=C1CCC(N2Cc3cc(NC(=O)C4=Cc5ccccc5OC4)ccc3C2=O)C(=O)N1 (centres undefined) ?
OUTPUT: 11
